EXPERIMENT DESCRIPTION: qHTS RealTime-Glo MT Cell Viability Assay in HEK293 cells - 40 hour (AID 1224874); note: % is set by controls: 0 for no effect and ±100 for the full control effect; nearly all actives have a fitted effect of over 50% in size
CONDITIONS USED: RealTime-Glo luminescence; active compounds read low
Inconclusive results are not listed. Calls of active or inactive are those of the source. Calls come from the whole dose curve; as a rule, active = well fitted cell-killing curve with a large enough effect in the repeat runs; inconclusive = weak or mixed curves, or effect the other way; inactive = flat fitted curve, though single readings scatter.
OBSERVATION TYPE: max response

COc1ccc(CCO)cc1
21.3% (inactive)
COC(=O)CCCCC(CCSS/C(CCO)=C(\C)N(C=O)Cc1cnc(C)nc1N)SC(C)=O (stereo not given)
3.28% (inactive)
OCC1(CO)COCOC1
-1.51% (inactive)
CCN(CC)CCN
2.52% (inactive)
CC(C)(CO)C(O)C(=O)NCCCO (stereo not given)
2.36% (inactive)
Cc1ccnc(N)c1
-4.39% (inactive)
CCC(=O)Oc1ccc2c(c1)CC[C@@H]1[C@@H]2CC[C@@]2(C)[C@H]1C[C@@H](OC(=O)CC)[C@@H]2OC(=O)CC
-0.818% (inactive)
Cc1c(Cl)cccc1Cl
-1.25% (inactive)
Cc1ccc(N)cc1S(=O)(=O)O
7.16% (inactive)
O=C(CCCl)NCCc1ccccc1
5.46% (inactive)
CCCC(=O)OCCC(C)CCC=C(C)C (stereo not given)
0.963% (inactive)
C=CCOC(=O)CCCCCC
3.28% (inactive)
OC1OCCOC1O (stereo not given)
9.9% (inactive)
O=[N+]([O-])c1c(Cl)cc(Cl)cc1Cl
-1.77% (inactive)
NCc1ccc(S(N)(=O)=O)cc1
4.4% (inactive)
Cn1nnc2c(C(N)=O)ncn2c1=O
3.79% (inactive)
O=S(=O)(O)c1ccc2c(N=Nc3ccc(S(=O)(=O)O)c4ccccc34)c(O)c(S(=O)(=O)O)cc2c1
4.14% (inactive)
CCCCSCCCC
1.22% (inactive)
C=C(C)[C@@H]1CC=C(C)CC1
1.3% (inactive)
CC(=O)C1C(=O)C=C(C)OC1=O (stereo not given)
1.99% (inactive)

###

EXPERIMENT DESCRIPTION: qHTS RealTime-Glo MT Cell Viability Assay in HEK293 cells - 40 hour (AID 1224874); note: % is set by controls: 0 for no effect and ±100 for the full control effect; nearly all actives have a fitted effect of over 50% in size
CONDITIONS USED: RealTime-Glo luminescence; active compounds read low
Excerpt: U.S. Tox21 Program National Center for Advancing Translational Sciences [NCATS] NIH Chemical Genomics Center [NCGC] U.S. Environmental Protection Agency [EPA] National Institutes of Environmental Health Sciences [NIEHS] National Toxicology Program [NTP] U.S. Food and Drug Administration [FDA] Tox21 Assay Overview: Measure of cell viability is critical in the cell-base assay. Analysis of cell viability is necessary for the characterization of cell responses to cytotoxic drugs and environmental stress. […]
Records with an inconclusive call do not appear.
OBSERVATION TYPE: max response (%)

CC(C)(C)NC[C@H](O)COc1cccc2c1CCCC2=O
-12
CCCC(=O)Nc1ccc(OCC(O)CNC(C)C)c(C(C)=O)c1 (stereo not drawn)
4
CC1(C)O[C@H]2CC(=O)OC[C@]23[C@H]2CC[C@@]4(C)[C@H](c5ccoc5)OC(=O)[C@H]5O[C@]54[C@]2(C)C(=O)C[C@@H]13
3.36
Cc1cc(-c2ccccc2)nnc1NCCN1CCOCC1
-1.81
COc1nc(N)nc2nc[nH]c12
-26
COC(C)(OC)OC
5.48
CCCc1ccc(O)cc1
6.55
Cc1cccc(Cl)c1
0.996
C[C@@H](O)C(=O)O
3.5
Cc1ccccc1C(N)=O
3
CC1=NN(c2ccc(S(=O)(=O)O)cc2)C(=O)C1
3.12
C=CCCCC
10.8
CC1(C)CC(OC(=O)CCCCCCCCC(=O)OC2CC(C)(C)NC(C)(C)C2)CC(C)(C)N1
17
O=C1CCC(=O)N1Cl
7.58
Cc1c(C(=O)c2c[nH]n(C)c2=O)ccc(S(C)(=O)=O)c1C1=NOCC1
2.86
O=C(Cn1ccnc1[N+](=O)[O-])NCc1ccccc1
-1.45
CO[C@@]1(NC(=O)Cc2cccs2)C(=O)N2C(C(=O)O)=C(COC(N)=O)CS[C@@H]21
0.152
CCCCCC(C)O (stereo not drawn)
6.06
COc1cc2c(cc1OC)CN(C(=O)[C@H](C)N[C@@H](CCc1ccccc1)C(=O)O)[C@H](C(=O)O)C2
2.78
CC(C)Nc1ccccc1
3.46
O=Cc1ccccc1Cl
4.59
CC(Oc1cc(Cl)ccc1Cl)C(=O)O (stereo not drawn)
-5.27
O=C[O][Al]([O]C=O)[O]C=O
5.61
